Record type: IC50 measurement. Applies to: USP7 (construct USP7 (208-1102) 6*His) (Homo sapiens)

[[record]]
molecule = "CN(C)C/C=C/C(=O)NCCCCC(=O)N1CCC(O)(Cn2cnc3c(-c4ccc(F)cc4)csc3c2=O)CC1"
reportedendpoint = "IC50"
valueobserved = "1000 to 10000 nM"

[[record]]
molecule = "COc1ccc(C(=O)N2CCC(O)(Cn3cnc4c(-c5ccc(F)cc5)csc4c3=O)CC2)cc1"
reportedendpoint = "IC50"
valueobserved = "1000 to 10000 nM"

[[record]]
molecule = "CC(CC(=O)N1CCC(O)(Cn2cnc3sccc3c2=O)CC1)c1ccccc1 (stereo not shown)"
reportedendpoint = "IC50"
valueobserved = "300 to 1000 nM"


Proceed to the following item.
Provide IC50, system USP7 (construct USP7 (208-1102) 6*His) (Homo sapiens), entry CCC(CC(=O)N1CCC(O)(Cn2cnc3sccc3c2=O)CC1)c1ccccc1 (stereo not shown)
1000 to 10000 nM

###

IC50, USP7 (construct USP7 (208-1102) 6*His) (Homo sapiens, UniProt Q93009), per-entry values.

Record excerpt, results attached:
[[record]]
compound = "Cc1sc2ncn(CC3(O)CCN(C(=O)CC(C)c4ccccc4)CC3)c(=O)c2c1C (centres unmarked)"
valueobserved = "> 10000 nM"

[[record]]
compound = "CC(CC(=O)N1CCC(O)(Cn2cnc3sc4c(c3c2=O)CCC4)CC1)c1ccccc1 (centres unmarked)"
valueobserved = "1000 to 10000 nM"

[[record]]
compound = "CN(C)C/C=C/C(=O)NCCCC(=O)N1CCC(O)(Cn2cnc3c(-c4ccc(F)cc4)csc3c2=O)CC1"
valueobserved = "1000 to 10000 nM"

[[record]]
compound = "O=C(c1ccccc1)N1CCC(O)(Cn2cnc3c(-c4ccc(F)cc4)csc3c2=O)CC1"
valueobserved = "1000 to 10000 nM"

[[record]]
compound = "CC(CC(=O)N1CCC(O)(Cn2cnc3sc4c(c3c2=O)CCCC4)CC1)c1ccccc1 (centres unmarked)"
valueobserved = "> 10000 nM"

[[record]]
compound = "Cc1cc2c(=O)n(CC3(O)CCN(C(=O)CC(C)c4ccccc4)CC3)cnc2s1 (centres unmarked)"
valueobserved = "< 300 nM"


Identify measured IC50 associated with CCc1cc2c(=O)n(CC3(O)CCN(C(=O)CC(C)c4ccccc4)CC3)cnc2s1 (centres unmarked)
< 300 nM

Check the records and state IC50 for CCCc1cc2c(=O)n(CC3(O)CCN(C(=O)CC(C)c4ccccc4)CC3)cnc2s1 (centres unmarked)
300 to 1000 nM
